# Test system: Hep-3B cells
# ASSAY_NOTES: Cellular assay: erythropoietin secretion in Hep-3B cells
# Type: cell-based, human
# ASSAY_SETUP: Homo sapiens, Hep3B, 100 μM compound, 24 hours, percent of EPO secretion relative to assay control compound 7-[(4-Chloro-phenyl)-(5-methyl-isoxazol-3-ylamino)-methyl]-quinolin-8-ol, read-out: Cellular % EPO Stimulation
Param threshold (40%) applies to Emax at 100 µM; output T when value >= threshold, F when value < threshold.

Input: hey, is Emax at 100 µM for this one >= 40%? `O=C(O)c1cnn(-c2nc3ccc(Oc4ccc(F)cc4)cc3c(=O)[nH]2)c1`
Output: T

Input: In plain terms: is recorded Emax at 100 µM at least 40% for `O=C(O)c1cnn(-c2nc3ccc4c(c3c(=O)[nH]2)CCCC4)c1` ?
Output: T

Input: Emax at 100 µM >= 40% for `CN1CCN(c2ccc3nc(-n4cc(C(=O)O)cn4)[nH]c(=O)c3c2)CC1` ?
Output: F

Input: Say whether `O=C(O)c1cnn(-c2nc3ccc(Oc4ccccc4)cc3c(=O)[nH]2)c1` shows Emax at 100 µM of 40% or more.
Output: T

Input: Threshold query (Emax at 100 µM >= 40%) on `O=C(O)c1cnn(-c2nc3ccc(-c4ccccc4F)cc3c(=O)[nH]2)c1`
Output: T

Input: Determine whether this compound has Emax at 100 µM no lower than 40%: `Cc1ccc(Oc2cc3c(=O)[nH]c(-n4cc(C(=O)O)cn4)nc3cc2F)cc1C`
Output: T

Input: Determine whether measured Emax at 100 µM meets or exceeds 40% for `COc1ccc2c(=O)[nH]c(-n3cc(C(=O)O)cn3)nc2c1`
Output: F

Input: Is Emax at 100 µM at least 40%? Consider `Cc1cccc(C)c1C(=O)Nc1ccc2nc(-n3cc(C(=O)O)cn3)[nH]c(=O)c2c1`
Output: F

Cited source: patent US8937078B2
